The measured values listed here are drawn from ChEMBL document CHEMBL3351764.

- Experimental target: 5-hydroxytryptamine receptor 2C (Homo sapiens)
- Test details: Agonist activity at human 5HT2C receptor at 100 uM to 5 mM
Calls of active or inactive are those of the source. The calls are words filed in the database; no cut-off is given here.
Metric name: Activity

Example entries begin here.
* CCOC(=O)COc1c(-c2cc(Br)ccc2F)oc2ccccc2c1=O | inactive
* O=c1cc(-c2ccc(O)cc2)oc2ccccc12 | inactive
* O=c1c(O)c(-c2ccc(Br)cc2F)oc2ccccc12 | inactive
* Clc1ccc(C2C=Cc3ccccc3O2)c(Cl)c1 (racemic) | inactive
* COc1ccc(F)c(-c2oc3ccccc3c(=O)c2O)c1 | inactive

INPUT: Requested read-out: Activity. Entry: "O=c1cc(-c2ccc(Cl)cc2Cl)oc2ccccc12"
OUTPUT: inactive

INPUT: Requested read-out: Activity. Entry: "O=c1c(O)c(-c2cccc(Cl)c2F)oc2ccccc12"
OUTPUT: inactive

INPUT: Requested read-out: Activity. Entry: "CCN(CC)c1ccc(-c2oc3ccccc3c(=O)c2O)cc1"
OUTPUT: inactive

INPUT: Requested read-out: Activity. Entry: "O=c1c(O)c(-c2ccc(Cl)cc2Cl)oc2ccccc12"
OUTPUT: inactive

INPUT: Requested read-out: Activity. Entry: "O=c1c(O)c(-c2ccc(O)c(O)c2)oc2ccccc12"
OUTPUT: inactive

INPUT: Requested read-out: Activity. Entry: COc1ccc(C2C=Cc3ccccc3O2)cc1O (racemic)
OUTPUT: inactive

INPUT: Requested read-out: Activity. Entry: "COc1cccc(-c2oc3ccccc3c(=O)c2O)c1"
OUTPUT: inactive

INPUT: Requested read-out: Activity. Entry: CN(C)c1ccc(C2C=Cc3ccccc3O2)cc1 (racemic)
OUTPUT: inactive

INPUT: Requested read-out: Activity. Entry: "COc1ccc(-c2cc(=O)c3ccccc3o2)cc1O"
OUTPUT: inactive
